Target: Sulfonylurea receptors; K-ATP channels (Homo sapiens, UniProt O60706+Q09428+Q14654+Q15842)
Method: Evaluated for K-ATP activity in terms of stable twitch response through field-stimulated landrace pig detrusor assay
Type: functional, Sus scrofa
Run conditions: target entry is the homologue from another species
So I've got a bunch of compounds here, and I need their EC50 values.
// units = nM; emit number, no label

**Q:** Lookup: EC50 / Sulfonylurea receptors; K-ATP channels (Homo sapiens, UniProt O60706+Q09428+Q14654+Q15842) / `O=C1CCCC2=C1[C@H](c1ccc(F)c(-c3ccco3)c1)C1=C(CCS1(=O)=O)N2`
**A:** 1700

**Q:** Recorded EC50 for `O=S1(=O)CCCC2=C1C(c1ccc(F)c(Br)c1)C1=C(CCCS1(=O)=O)N2` with Sulfonylurea receptors; K-ATP channels (Homo sapiens, UniProt O60706+Q09428+Q14654+Q15842), please?
**A:** 11700

**Q:** Field: EC50 (Sulfonylurea receptors; K-ATP channels (Homo sapiens, UniProt O60706+Q09428+Q14654+Q15842)). Entry: CC(=O)C1=C(C)NC2=C(C1c1ccc(F)c(Br)c1)S(=O)(=O)CCC2 (stereo not given)
**A:** 794

**Q:** Notebook entry, Sulfonylurea receptors; K-ATP channels (Homo sapiens, UniProt O60706+Q09428+Q14654+Q15842) assay: EC50 of `CC1(C)CCC2=C(C1=O)[C@@H](c1ccc(F)c(Br)c1)C1=C(CCS1(=O)=O)N2` = ?
**A:** 977

**Q:** Find the measured EC50: item `O=C1CCCC2=C1[C@H](c1ccc3nonc3c1)C1=C(CCS1(=O)=O)N2` , target or system Sulfonylurea receptors; K-ATP channels (Homo sapiens, UniProt O60706+Q09428+Q14654+Q15842).
**A:** 2340

**Q:** Find the measured EC50: item `O=C1CCCC2=C1[C@H](c1ccc(F)c(I)c1)C1=C(CCS1(=O)=O)N2` , target or system Sulfonylurea receptors; K-ATP channels (Homo sapiens, UniProt O60706+Q09428+Q14654+Q15842).
**A:** 447

**Q:** Any idea what EC50 came out for `CCc1cc(C#N)ccc1Nc1c(N[C@H](C)C(C)(C)C)c(=O)c1=O` on Sulfonylurea receptors; K-ATP channels (Homo sapiens, UniProt O60706+Q09428+Q14654+Q15842)?
**A:** 676

**Q:** Find the measured EC50: item O=C1CCC2=C1C(c1ccc(F)c(Br)c1)C1=C(CCCCS1(=O)=O)N2 (stereo not given) , target or system Sulfonylurea receptors; K-ATP channels (Homo sapiens, UniProt O60706+Q09428+Q14654+Q15842).
**A:** 11700

**Q:** Query the reported EC50 for Sulfonylurea receptors; K-ATP channels (Homo sapiens, UniProt O60706+Q09428+Q14654+Q15842); item: `Cc1ccc([C@H]2C3=C(CCCC3=O)NC3=C2S(=O)(=O)CC3)cc1Br`
**A:** 110

**Q:** # returns recorded EC50 (system: Sulfonylurea receptors; K-ATP channels (Homo sapiens, UniProt O60706+Q09428+Q14654+Q15842)) for `O=C1CCC2=C1[C@@H](c1ccc(F)c(Br)c1)C1=C(CCS1(=O)=O)N2`
**A:** 30.9

**Q:** Please state recorded EC50 (tested on Sulfonylurea receptors; K-ATP channels (Homo sapiens, UniProt O60706+Q09428+Q14654+Q15842)) of `O=C1CCCC2=C1[C@H](c1cc(Br)ccc1O)C1=C(CCS1(=O)=O)N2`
**A:** 20400

**Q:** For the record `O=C1CCCC2=C1[C@H](c1ccc(Br)c(Br)c1)C1=C(CCS1(=O)=O)N2` , what value of EC50 is listed for Sulfonylurea receptors; K-ATP channels (Homo sapiens, UniProt O60706+Q09428+Q14654+Q15842)?
**A:** 537

**Q:** I'm curious: which EC50 was measured for `CCC(C)(C)NC(=NC#N)Nc1cccnc1` tested on Sulfonylurea receptors; K-ATP channels (Homo sapiens, UniProt O60706+Q09428+Q14654+Q15842)?
**A:** 85.1

**Q:** Identify the measured EC50 of `N#Cc1cccc(C2C3=C(CCCC3=O)NC3=C2C(=O)CCC3)c1` for Sulfonylurea receptors; K-ATP channels (Homo sapiens, UniProt O60706+Q09428+Q14654+Q15842).
**A:** 9770

**Q:** # value lookup — system Sulfonylurea receptors; K-ATP channels (Homo sapiens, UniProt O60706+Q09428+Q14654+Q15842), readout EC50, item `O=S1(=O)CCC2=C1C(c1ccc(F)c(Br)c1)C1=C(CCS1(=O)=O)N2`
**A:** 269

**Q:** Any idea what EC50 came out for `C=Cc1cc([C@H]2C3=C(CCCC3=O)NC3=C2S(=O)(=O)CC3)ccc1F` on Sulfonylurea receptors; K-ATP channels (Homo sapiens, UniProt O60706+Q09428+Q14654+Q15842)?
**A:** 2450

**Q:** Query for Sulfonylurea receptors; K-ATP channels (Homo sapiens, UniProt O60706+Q09428+Q14654+Q15842): what EC50 does the record show for O=C1CCCC2=C1C(c1ccc(F)c(Br)c1)C1=C(CCCS1(=O)=O)N2 (stereo in doubt; 17(-)) ?
**A:** 363

**Q:** For the record `O=C1CCCC2=C1[C@H](c1cc(Br)c(F)cc1O)C1=C(CCS1(=O)=O)N2` , what value of EC50 is listed for Sulfonylurea receptors; K-ATP channels (Homo sapiens, UniProt O60706+Q09428+Q14654+Q15842)?
**A:** 676

**Q:** State its EC50 on Sulfonylurea receptors; K-ATP channels (Homo sapiens, UniProt O60706+Q09428+Q14654+Q15842): `CC1(C)CCC2=C(C1=O)[C@H](c1ccc(F)c(Br)c1)C1=C(CCS1(=O)=O)N2`
**A:** 5620

**Q:** Query the reported EC50 for Sulfonylurea receptors; K-ATP channels (Homo sapiens, UniProt O60706+Q09428+Q14654+Q15842); item: `O=C1CCCC2=C1[C@H](c1ccc(Cl)c(Br)c1)C1=C(CCS1(=O)=O)N2`
**A:** 724
